target: hSCN3A sodium channels (Homo sapiens, UniProt Q9NY46); construct: expressed in transfected cells; assay: hSCN3A electrophysiology, whole-cell patch-clamp or PatchXpress 7000, estimated IC-50 (Table B); format: cell-based; details: estimated IC-50; hSCN3A cells, whole-cell patch-clamp or PatchXpress 7000; read-out: SCN3A EIC-50
Sequence (Q9NY46 whole entry): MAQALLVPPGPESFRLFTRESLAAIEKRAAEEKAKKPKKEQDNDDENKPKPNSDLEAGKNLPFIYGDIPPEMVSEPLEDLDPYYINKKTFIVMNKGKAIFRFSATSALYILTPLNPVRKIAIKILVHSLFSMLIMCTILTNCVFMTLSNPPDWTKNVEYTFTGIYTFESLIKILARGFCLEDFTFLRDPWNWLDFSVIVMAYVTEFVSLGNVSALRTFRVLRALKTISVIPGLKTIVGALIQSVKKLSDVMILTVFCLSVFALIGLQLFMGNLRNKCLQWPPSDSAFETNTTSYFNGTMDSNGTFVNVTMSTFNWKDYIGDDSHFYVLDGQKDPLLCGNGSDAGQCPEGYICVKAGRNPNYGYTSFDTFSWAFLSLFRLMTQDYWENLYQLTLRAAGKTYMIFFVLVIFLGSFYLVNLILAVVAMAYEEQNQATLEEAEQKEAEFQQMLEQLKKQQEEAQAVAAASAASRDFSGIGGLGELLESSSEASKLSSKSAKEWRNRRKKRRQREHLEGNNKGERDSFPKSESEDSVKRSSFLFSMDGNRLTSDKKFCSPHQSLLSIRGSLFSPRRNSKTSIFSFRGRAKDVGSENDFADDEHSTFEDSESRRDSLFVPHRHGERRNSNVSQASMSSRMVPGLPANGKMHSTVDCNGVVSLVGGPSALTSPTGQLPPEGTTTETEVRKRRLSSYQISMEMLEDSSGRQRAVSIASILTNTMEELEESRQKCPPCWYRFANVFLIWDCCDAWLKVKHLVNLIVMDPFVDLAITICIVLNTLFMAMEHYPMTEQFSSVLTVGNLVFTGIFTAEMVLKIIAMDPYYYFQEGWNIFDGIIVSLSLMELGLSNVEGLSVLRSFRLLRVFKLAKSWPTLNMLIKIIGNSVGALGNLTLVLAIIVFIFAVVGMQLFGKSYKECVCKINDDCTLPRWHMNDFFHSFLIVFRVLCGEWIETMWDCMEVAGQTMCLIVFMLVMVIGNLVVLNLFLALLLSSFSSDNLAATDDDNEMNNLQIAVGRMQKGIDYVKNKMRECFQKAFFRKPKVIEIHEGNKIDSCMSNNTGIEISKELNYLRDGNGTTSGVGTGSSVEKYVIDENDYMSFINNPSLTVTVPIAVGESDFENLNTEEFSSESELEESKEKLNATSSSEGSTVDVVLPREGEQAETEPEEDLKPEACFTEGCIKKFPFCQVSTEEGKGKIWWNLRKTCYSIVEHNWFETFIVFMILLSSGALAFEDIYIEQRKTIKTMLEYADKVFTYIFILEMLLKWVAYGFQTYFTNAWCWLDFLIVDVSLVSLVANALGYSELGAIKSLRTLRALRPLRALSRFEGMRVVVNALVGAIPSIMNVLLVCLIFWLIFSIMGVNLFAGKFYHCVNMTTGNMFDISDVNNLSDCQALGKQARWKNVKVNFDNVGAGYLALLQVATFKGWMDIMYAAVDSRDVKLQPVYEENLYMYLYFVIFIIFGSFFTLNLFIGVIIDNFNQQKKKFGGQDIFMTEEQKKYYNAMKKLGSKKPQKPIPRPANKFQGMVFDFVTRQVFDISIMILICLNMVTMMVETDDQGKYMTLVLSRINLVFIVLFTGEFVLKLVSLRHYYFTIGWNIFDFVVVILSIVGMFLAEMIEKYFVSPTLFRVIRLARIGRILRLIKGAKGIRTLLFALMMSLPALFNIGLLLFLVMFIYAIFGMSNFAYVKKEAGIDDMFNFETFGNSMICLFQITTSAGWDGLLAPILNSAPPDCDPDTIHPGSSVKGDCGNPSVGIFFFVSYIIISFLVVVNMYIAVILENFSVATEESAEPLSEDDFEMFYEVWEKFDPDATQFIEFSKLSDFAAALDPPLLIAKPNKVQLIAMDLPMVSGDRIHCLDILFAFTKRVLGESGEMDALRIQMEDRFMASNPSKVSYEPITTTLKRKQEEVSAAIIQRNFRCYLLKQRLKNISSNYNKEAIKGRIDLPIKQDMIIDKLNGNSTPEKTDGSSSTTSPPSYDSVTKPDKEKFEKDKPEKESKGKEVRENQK
pIC50: −log10 of the molar value.
Entries annotated with measured pIC50
Outcome Measure: pIC50

O=C(NCCOc1ccccc1Cl)c1ccc(S(=O)(=O)Nc2nccs2)cc1: 5.60
O=C(NCc1ccc(C(F)(F)F)cc1)c1ccc(S(=O)(=O)Nc2ncc(Cl)s2)cc1F: 6.70
Cc1cc(NS(=O)(=O)c2ccc(C(=O)NCc3ccc(C(F)(F)F)cc3)cc2)no1: 5.65
O=C(NCc1ccc(C(F)(F)F)c(F)c1)c1ccc(S(=O)(=O)Nc2nccs2)c(Cl)c1: 6.47
O=C(NCc1ccc(OC(F)(F)F)c(F)c1)c1ccc(S(=O)(=O)Nc2ncns2)cc1: 7.40
O=C(Nc1ccc2c(n1)CCC2)c1ccc(S(=O)(=O)Nc2nccs2)cc1: 5.19
O=C(NCc1ccc(OC(F)(F)F)c(F)c1)c1ccc(S(=O)(=O)Nc2nccs2)cn1: 6.51

====

Reported pIC50 values for the following compounds.
biological target: hSCN3A sodium channels (Homo sapiens); construct: expressed in transfected cells; test: hSCN3A electrophysiology, whole-cell patch-clamp or PatchXpress 7000, estimated IC-50 (Table B); type: cell-based; settings: estimated IC-50; hSCN3A cells, whole-cell patch-clamp or PatchXpress 7000; read-out: SCN3A EIC-50
pIC50: −log10 of the molar value.
Outcome Measure: pIC50

O=C(NCc1ccc(Cl)c(F)c1)c1ccc(S(=O)(=O)Nc2ncc(Cl)s2)cc1F [Example 355]: 6.82
COc1cccc(CNC(=O)c2ccc(S(=O)(=O)Nc3nccs3)cc2)c1 [Example 170]: 5.41
Cc1noc(NS(=O)(=O)c2ccc(C(=O)NCc3ccc(C(F)(F)F)cc3)cc2)c1C [Example 12]: 4.53
Cc1nc(NS(=O)(=O)c2ccc(C(=O)NCc3ccc(C(F)(F)F)cc3)cc2)cs1 [Example 15]: 4.51
COc1ccc(CNC(=O)c2ccc(S(=O)(=O)Nc3nccs3)cc2)cc1 [Example 176]: 5.35
CC(C)(NC(=O)c1ccc(S(=O)(=O)Nc2nccs2)cc1)c1ccc(C(F)(F)F)cc1 [Example 123]: 5.84
O=C(NCC1(c2ccc(Cl)cc2)CC1)c1ccc(S(=O)(=O)Nc2ncns2)c(F)c1 [Example 382]: 6.85
O=C(NCCOc1ccc(Cl)cc1)c1ccc(S(=O)(=O)Nc2nccs2)cc1 [Example 186]: 6.38
O=C(NCc1ccc(C(F)(F)F)c(F)c1)c1ccc(S(=O)(=O)Nc2ncc(Cl)s2)c(F)c1 [Example 310]: 7.30
O=C(NCc1ccc(F)cc1)c1ccc(S(=O)(=O)Nc2nccs2)cc1 [Example 92]: 6.24
O=C(NCc1ccc(C(F)(F)F)c(F)c1)c1ccc(S(=O)(=O)Nc2nccs2)cn1 [Example 340]: 6.55
O=C(NCc1ccc(C(F)(F)F)cc1)c1ccc(S(=O)(=O)Nc2nccs2)c(F)c1 [Example 303]: 6.85
O=C(c1ccc(S(=O)(=O)Nc2nccs2)cc1)N1CCC(c2ccccc2)C1 (centres unmarked) [Example 191]: 5.65
O=C(NCc1ccc(F)c(OC(F)(F)F)c1)c1ccc(S(=O)(=O)Nc2nccs2)c(F)c1 [Example 300]: 6.89
O=C(NCc1ccc(C(F)(F)F)c(F)c1)c1ccc(S(=O)(=O)Nc2ncc(Cl)s2)cc1Cl [Example 339]: 6.23
O=C(NCc1ccc(Cl)c(Cl)c1)c1ccc(S(=O)(=O)Nc2ncc(Cl)s2)cc1 [Example 35]: 7.40
